I'd appreciate it if you could supply MIC values for the items below.
# System: E. cloacae 13047
# experiment-summary: Minimal inhibitory concentration, E. cloacae 13047
# Assay type: cell-based
# setup-conditions: Enterobacter cloacae, 13047; 16 hour minimal inhibitory concentration at 37° C.; read-out: MIC (μM) E. cloacae 13047

compound="CO[C@@H]1[C@@H](OC(N)=O)[C@@H](O)[C@H](Oc2ccc3c(O)c(NC(=O)c4ccccc4Br)c(=O)oc3c2C)OC1(C)C [Compound 231]" test_system="E. cloacae 13047" property=MIC reading="> 100 µM"
compound="CO[C@@H]1[C@@H](OC(N)=O)[C@@H](O)[C@H](Oc2ccc3c(O)c(NC(=O)c4cccc(Oc5ccc(F)cc5)c4)c(=O)oc3c2C)OC1(C)C [Compound 249]" test_system="E. cloacae 13047" property=MIC reading="> 100 µM"

Let's switch to this compound now.
Need MIC, item CO[C@@H]1[C@@H](OC(N)=O)[C@@H](O)[C@H](Oc2ccc3c(O)c(NC(=O)c4ccccc4-c4ccccc4)c(=O)oc3c2C)OC1(C)C [Compound 40]
> 100 µM
